system: TANOUE; assay: selective drug sensitivity score (sDSS, relative to normal bone marrow) (sDSS (score)); higher = more potent and effective on the cell line relative to normal bone marrow cells; settings: 72 h;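 further: ALL cell lines in 384-well plates, five doses spanning 10,000-fold, each plate scaled between vehicle and 100 µmol/L benzalkonium chloride controls, sDSS an adapted area-under-curve metric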
Assign selective drug sensitivity score to each entry below.
API doc: respond with a numeric literal and nothing else, no unit.

stdin: Output measured selective drug sensitivity score for this item: CC(C)c1c(C(=O)Nc2ccccc2)c(-c2ccccc2)c(-c2ccc(F)cc2)n1CC[C@@H](O)C[C@@H](O)CC(=O)O [Atorvastatin] (top concentration 10000 nM)
stdout: -3.7

stdin: Output measured selective drug sensitivity score for this item: NC(=S)N/N=C/c1ncccc1N [Triapine] (top concentration 10000 nM)
stdout: -1.32

stdin: Output measured selective drug sensitivity score for this item: Cc1ccc(C(=O)Nc2cccc(C(F)(F)F)c2)cc1Nc1nc(-c2cccnc2)nc2c1cnn2C [NVP-BHG712] (top concentration 10000 nM)
stdout: -2.32

stdin: Output measured selective drug sensitivity score for this item: C[C@H]1CNCCCN1S(=O)(=O)c1cccc2cncc(F)c12 [Ripasudil] (top concentration 10000 nM)
stdout: -0.22

stdin: Output measured selective drug sensitivity score for this item: CCN1C(=O)CNc2ncc(-c3ccc(-c4nc[nH]n4)nc3C)nc21 [CC-115] (top concentration 10000 nM)
stdout: -5.46

* * *

system: REH; test: selective drug sensitivity score (sDSS, relative to normal bone marrow) (sDSS (score)); higher = more potent and effective on the cell line relative to normal bone marrow cells; settings: 72 h
metricName: selective drug sensitivity score
API doc: respond with a numeric literal and nothing else, no unit.

stdin: Output measured selective drug sensitivity score for this item: CN1CC[C@H](c2c(O)cc(O)c3c(=O)cc(-c4ccccc4Cl)oc23)[C@H](O)C1 [Alvocidib] (top concentration 10000 nM)
stdout: -2

stdin: Output measured selective drug sensitivity score for this item: Cc1c(F)cc(C(=O)NC2CC2)cc1-c1ccc(C(=O)NCC(C)(C)C)cn1 [Losmapimod] (top concentration 10000 nM)
stdout: -0.18

stdin: Output measured selective drug sensitivity score for this item: COc1cc2/c(=N/c3ccc(Br)cc3F)nc[nH]c2cc1OCC1CCN(C)CC1 [Vandetanib] (top concentration 1000 nM)
stdout: -0.22

stdin: Output measured selective drug sensitivity score for this item: COc1cc([C@@H]2c3cc4c(cc3[C@@H](O[C@@H]3O[C@@H]5CO[C@@H](c6cccs6)O[C@H]5[C@H](O)[C@H]3O)[C@H]3COC(=O)[C@H]23)OCO4)cc(OC)c1O [Teniposide] (top concentration 10000 nM)
stdout: 0

stdin: Output measured selective drug sensitivity score for this item: Nc1nc(F)nc2c1ncn2[C@@H]1O[C@H](CO)[C@@H](O)[C@@H]1O [Fludarabine] (top concentration 10000 nM)
stdout: -1.3

stdin: Output measured selective drug sensitivity score for this item: Cc1cc2c(C(=O)NC[C@H](C)c3ccccc3)c(O)c(O)cc2c(O)c1-c1c(C)cc2c(C(=O)NC[C@H](C)c3ccccc3)c(O)c(O)cc2c1O [Sabutoclax] (top concentration 25000 nM)
stdout: 17.5

stdin: Output measured selective drug sensitivity score for this item: C#Cc1cccc(Nc2ncnc3cc4c(cc23)OCCOCCOCCO4)c1 [Icotinib] (top concentration 10000 nM)
stdout: 0

stdin: Output measured selective drug sensitivity score for this item: Cc1nc(C(=O)NCC(=O)O)c(O)c2ccc(Oc3ccccc3)cc12 [Roxadustat] (top concentration 10000 nM)
stdout: -1.12

stdin: Output measured selective drug sensitivity score for this item: O=C1c2c(O)ccc(O)c2C(=O)c2c(NCCNCCO)ccc(NCCNCCO)c21 [Mitoxantrone] (top concentration 1000 nM)
stdout: 12.6

stdin: Output measured selective drug sensitivity score for this item: CC1(C)CNc2cc(NC(=O)c3cccnc3NCc3ccncc3)ccc21 [Motesanib] (top concentration 10000 nM)
stdout: -0.22

stdin: Output measured selective drug sensitivity score for this item: C=CC(=O)N1CCC(Oc2cc3c(Nc4ccc(Cl)c(Cl)c4F)ncnc3cc2OC)CC1 [Poziotinib] (top concentration 1000 nM)
stdout: -0.22

stdin: Output measured selective drug sensitivity score for this item: CNc1nc(-c2ccc3c(N)n[nH]c3c2)cc(N2C[C@@H](C(=O)NC3CCCCC3)CC[C@H]2C)n1 (top concentration 10000 nM)
stdout: 3.86

stdin: Output measured selective drug sensitivity score for this item: COc1cc2c(cc1OCCCN1CCCC1)N=C(N)C21CCC1 [A-366] (top concentration 25000 nM)
stdout: 0.36
